The entries below are paired with their reported Complete Media.
system: NCI-H292 lung cancer cells; assay: FDA drug screening, complete media vs cholesterol-free media with simvastatin (TABLE 2); type: cell-based, human; conditions: NCI-H292 cells, complete media; FDA drug library screen (TABLE 2)
Keep it simple and answer with nothing but the number.

// solved cases for Complete Media follow
CCCN1CC(c2ccc(S(C)(=O)=O)cc2)=C(c2ccc(C)cc2)C1=O
1.141
OB1OCc2cc(F)ccc21
1.117
NCCC(O)(P(=O)(O)O)P(=O)(O)O
1.049

Entry N#Cc1nn(-c2c(Cl)cc(C(F)(F)F)cc2Cl)c(N)c1[S+]([O-])C(F)(F)F (stereo not drawn) : Complete Media on NCI-H292 lung cancer cells = 1.184

Entry O=C(c1ccc(F)c(F)c1Nc1ccc(I)cc1F)N1CC(O)([C@@H]2CCCCN2)C1 : Complete Media on NCI-H292 lung cancer cells = 0.5258

Entry C[C@@H](O)[C@H]1C(=O)N2C(C(=O)O)=C(SCCN=CN)C[C@H]12 [Imipenem monohydrate] : Complete Media on NCI-H292 lung cancer cells = 0.9548

Entry CC(C)OC(=O)CCC/C=C\C[C@@H]1[C@@H](CC[C@@H](O)CCc2ccccc2)[C@H](O)C[C@@H]1O : Complete Media on NCI-H292 lung cancer cells = 0.9769

Entry O=S(=O)(O)c1ccc2[nH]c(-c3ccccc3)nc2c1 : Complete Media on NCI-H292 lung cancer cells = 0.8833

Entry CC(C)OC(=O)CCC/C=C\C[C@@H]1[C@@H](/C=C/[C@@H](O)COc2cccc(C(F)(F)F)c2)[C@H](O)C[C@@H]1O : Complete Media on NCI-H292 lung cancer cells = 0.8818
